- Test system: NCI-H522 lung
- run_description: NCI-60 one-dose screen, 48 h (100 = growth as untreated, 0 = no growth, -100 = all killed)
- condition_set: 10 µM unless noted
This is part of a sample that, as a whole, favours compounds with a hit. Of some 83,000 tested, about 20% had one in any assay.
quantity_kind: growth (%)
API: value field is a number in %; no unit string.

Record "Cn1cc(-c2csc(-c3cn(CCCN4CCOCC4)c4ccccc34)n2)c2cccnc21" : what is its growth with NCI-H522 lung? 67.9

Provide the documented growth with NCI-H522 lung as the system for "CCCCNc1cc(-c2cn[nH]c2-c2cc(C)cc(OC)c2)nc(-c2cccnc2)n1" 81.2

Any idea what growth came out for "N#C/C(=C\c1cn(Cc2ccccc2)c2ccccc12)C(=O)Nc1ncc(Cc2ccccc2Cl)s1" on NCI-H522 lung? 30.3

What reported growth corresponds to "CCN1CCN(CCNc2nccc(-c3c(-c4ccc(F)c(OC)c4)nc4sccn34)n2)S1(=O)=O" on NCI-H522 lung? 63

Look up growth with NCI-H522 lung for this compound: "O=C(Nc1cc(Cl)ccc1O)c1cccc(Nc2ccnc(C(F)(F)F)c2)c1" 30.6

====

- Tested on: COLO 205 colon
- run_description: NCI-60 one-dose screen, 48 h
- condition_set: 10 µM unless noted
About 83,000 compounds went through this panel and 20% of them were active in at least one assay; those are over-represented in the sample as a whole. Activity calls are given as the source filed them. Rule for the calls: active = growth percent below 10; inactive = the rest.
Parameter call: string, one of active, inactive

What did this assay record as the result for "CCN(CC)CCN1C(=O)c2cccc3c(/C=C/CN4C(=O)c5cccc6cccc(c56)C4=O)ccc(c23)C1=O" ? inactive

Look up the recorded call for "Cc1cccc(Oc2ccc(Nc3ncnc4ccc(NC(=O)CN5CCN(C)CC5)cc34)cc2Cl)c1" in this test. active

Which outcome did this test record for the molecule "COc1cc2nc3sc(C(=O)Nc4ccc(C(=O)OC(C)C)cc4)c(C(=O)Nc4ccc(Cl)cc4C)n3c(=O)c2cc1OC" ? inactive

Per the assay record, what outcome was assigned to "COC(=O)CC[C@@H]1O[C@@H](c2ccc(F)cc2)[C@@H](O)[C@H]1O" ? inactive

====

- Test system: U251 CNS
- run_description: NCI-60 one-dose screen, 48 h
- condition_set: 10 µM unless noted
About 83,000 compounds went through this panel and 20% of them were active in at least one assay; those are over-represented in the sample as a whole. Activity calls are given as the source filed them. How the source made its calls: active means growth percent below 10; inactive means the rest.
Form entry, call: pick from 1.0 (active), 0.0 (inactive)

Test call for this compound, please: "N#Cc1cncc(-c2ccc3ncnc(Nc4cccc(Cl)c4)c3c2)c1" 0.0

Check the results log: what was the call for "O=C1/C(=C2\SC(=S)N(C3CC3)C2=O)SC(=S)N1C1CC1" ? 0.0

# outcome recorded in this test, key = "N=C(N)c1ccc(-c2ccc(-c3cc(Cl)cc(Cl)c3)s2)nc1" 1.0

So what was the verdict on "Nc1[nH]n2cc(-c3ccc(F)cc3)nc2c1N=Nc1ccc(S(N)(=O)=O)cc1" in this test? 0.0

Each compound tested received a call. Report the one for "CCCCCCCCCCCCCOC(=O)c1c(C)[nH]c(/C=C2\N=C(c3ccc[nH]3)C=C2OC)c1C" . 0.0

Hi, sorry to bother you, what did the test record for "O=C(N=Nc1c(O)[nH]c2ccccc12)Nc1ccc(F)cc1" ? 0.0

# fetch the recorded call for "CCN(CC)c1ccc(/C=N/NC(=O)Cc2ccc(Nc3ccnc(C(F)(F)F)c3)cc2)c(O)c1" here 0.0

What did this assay record as the result for CCN1C(=O)N(CC)C2Nn3c(s/c(=C\c4ccccc4Br)c3=O)=NC21 (stereo not given) ? 1.0

Please state the recorded outcome for this compound: "CN1CCN(c2ccc3nc4c(nc3c2C(F)(F)F)C(=O)c2ncccc2C4=O)CC1" 1.0

Tell me the recorded outcome of this test for "O=S(=O)(Nc1cc(Sc2cccc3cccnc23)c(O)c2ccccc12)c1ccccc1" . 1.0

What outcome does the record of this test show for "COc1ccc(Cn2cc(C(=O)N=Nc3c(O)[nH]c4c(C)cccc34)nn2)cc1" ? 0.0

Tell me the assay call for "NC1=Nc2cc(OCCCCN3Cc4ccccc4C3)c(OCC3CC3)cc2C12CCCC2" please. 0.0

Dear colleague, could you share the recorded outcome for "C#CCOc1cccc(-c2ncnc3cc(NC(=O)C=C)ccc23)c1" when you have a moment? 0.0

Assay outcome for "COc1cc(/C=C/C(=O)c2ccc(-n3cc(CN4CCN(c5cc6c(cc5F)c(=O)c(C(=O)O)cn6C5CC5)CC4)nn3)cc2)ccc1O" : what was it? 0.0

# outcome recorded in this test, key = "FC(F)(F)Oc1cccc(-c2cnc3ccc(-c4ccncc4)nn23)c1" 0.0

Please let me know the test result on file for "CCNc1nc(O)c(/C=C2\C=Nc3ncccc32)s1" . 1.0

What did this assay record as the result for "COc1ccc(CNc2c3ccccc3nc3ccccc23)c(OC)c1" ? 0.0

Outcome? CN(Cc1ccccc1)c1nc(Cl)c(C2CC(c3ccccc3)=NN2c2ccccc2)s1 (stereo not given) 0.0

How did this test come out for "Cc1ccc(-c2csc(N(C(=O)N3CCN(c4cc5c(cc4F)c(=O)c(C(=O)O)cn5C4CC4)CC3)c3ccccc3)n2)cc1" ? 0.0

State the result this test recorded for "C[C@]1(O)CC(=O)[C@]2(O)C3=C(C=C[C@]2(O)C1)C(=O)c1c(O)cccc1C3=O" . 0.0

====

- Test system: CAKI-1 renal
- run_description: NCI-60 one-dose screen, 48 h (100 = growth as untreated, 0 = no growth, -100 = all killed)
- condition_set: 10 µM unless noted
Compounds without any hit were thinned out: in the full panel of roughly 83,000, 20% have a hit. The source made the active and inactive calls. Rule for the calls: active = growth percent below 10; inactive = the rest.
Please respond with reported growth for every item in the list.

What measured growth goes with "COc1cc(C2C(C(=O)OCc3ccccc3)=C(C)NC(C)=C2C(=O)OCc2ccccc2)cc(OC)c1OC" ? 26.2% (inactive)

Data request, read-out growth, for CO[C@H](C(=O)[C@@H](O)[C@@H](C)O)[C@@H]1Cc2cc3cc(O[C@H]4C[C@@H](O[C@H]5C[C@@H](O)[C@H](O)C(C)O5)[C@H](O)C(C)(O)O4)cc(O)c3c(O)c2C(=O)[C@H]1O[C@H]1C[C@@H](O[C@H]2C[C@@H](O[C@H]3C[C@@H](OC)[C@H](O)C(C)O3)[C@@H](O)C(C)O2)[C@H](O)C(C)O1 (stereo partly specified) 68.9% (inactive)

Entry "COc1ccc(C(=O)Cn2c(C(=O)c3ccc(OC)cc3)nc3ccccc32)cc1" : reported growth = ? 25.4% (inactive)

Using the record for "O=C(CN1CCN(c2cc3c(cc2F)c(=O)c(C(=O)O)cn3C2CC2)CC1)N/N=C/c1ccco1" , report its growth. 99.7% (inactive)

What growth value was documented for this molecule, "CCOc1c(OC)cc2c(c1O)C(=O)N[C@@H]1[C@@H](O)[C@@H](O)[C@H](O)C[C@@H]21" ? 91.3% (inactive)

Return reported growth; argument: "C[C@]1(O)CC(=O)[C@]2(O)C3=C(C=C[C@]2(O)C1)C(=O)c1c(O)cccc1C3=O" -59.8% (active)

Return reported growth; argument: "COc1ccc(C(=O)/C=C/c2ccc(Cl)cc2)cc1S(=O)(=O)Nc1c(N)nc(SC)[nH]c1=O" 68.5% (inactive)

Could you share which growth value was measured for "O=C(O)[C@@H](Cc1ccc2ccccc2c1)NC(=O)n1c2ccccc2c2ccccc21" ? 30.5% (inactive)

Reported growth, molecule "CN1CCN(C(=S)SCCCCOc2cc(=O)oc3ccccc23)CC1" : ____ 93.7% (inactive)

Value lookup for growth; key = "CC(C)(C)n1cc(-c2ccnc(NCCCNS(=O)(=O)c3ccc(C(F)(F)F)cc3)c2)c(-c2cccc(F)c2)n1" 90.3% (inactive)

Report growth for "Cc1ccc(-c2nc(N3CCNCC3)c3oc(-c4ccc(C)cc4)nc3n2)cc1" please. 101% (inactive)

Which growth value belongs to "CC(=O)Oc1ccc(OC(C)=O)c2ccccc12" ? 100% (inactive)

Requested read-out: growth. Entry: CC(=O)OC(c1ccccc1)C1CCOC1=O (stereo unspecified) 75.2% (inactive)

// returns reported growth for input "COC1=C(C)C(=O)N2[C@@H]1[C@H](c1ccccc1)OC21C=CC(=O)C=C1" -59.6% (active)

Which growth value belongs to "Cc1ccc(-c2nc(-c3cn(C)c4ncccc34)cs2)cc1" ? -22.9% [100 µM] (active)

Requested field: growth. Item: "O=C(Cc1ccccc1)Nc1cccc(N=Cc2ccccc2O)c1" 80.8% (inactive)

Sample "COC(=O)c1cc(Br)ccc1O" — what was its growth? 101% (inactive)

Record request: growth value, item "NNCCc1ccc(NC(=O)CCCc2ccc(C(=O)Nc3ccccc3N)cc2)cc1" 80.6% (inactive)

Please give the measured growth for this molecule: "Cc1cccc[n+]1C1c2ccccc2-c2ccccc21" 100% (inactive)

I would be grateful if you could share the reported growth for Cc1ccc2nc(/C(C#N)=C(/CCCO)NC(Cc3ccccc3)C(=O)OCc3ccccc3)[nH]c(=O)c2c1 (stereo unspecified) . 90.2% (inactive)

Tell me the measured growth of "O=C1/C(=C/c2ccc(F)cc2)CN(C(=O)C(Cl)Cl)C/C1=C\c1ccc(F)cc1" , please. -55.4% (active)
